molecular target: human recombinant HDAC6 (Homo sapiens, UniProt Q9UBN7); construct: purchased Calbiochem 382180; experiment: HDAC6 enzyme activity inhibition assay (HDAC Fluorimetric Drug Discovery Kit); type: biochemical; settings: HDAC1 vs HDAC6
Sequence (Q9UBN7 whole entry): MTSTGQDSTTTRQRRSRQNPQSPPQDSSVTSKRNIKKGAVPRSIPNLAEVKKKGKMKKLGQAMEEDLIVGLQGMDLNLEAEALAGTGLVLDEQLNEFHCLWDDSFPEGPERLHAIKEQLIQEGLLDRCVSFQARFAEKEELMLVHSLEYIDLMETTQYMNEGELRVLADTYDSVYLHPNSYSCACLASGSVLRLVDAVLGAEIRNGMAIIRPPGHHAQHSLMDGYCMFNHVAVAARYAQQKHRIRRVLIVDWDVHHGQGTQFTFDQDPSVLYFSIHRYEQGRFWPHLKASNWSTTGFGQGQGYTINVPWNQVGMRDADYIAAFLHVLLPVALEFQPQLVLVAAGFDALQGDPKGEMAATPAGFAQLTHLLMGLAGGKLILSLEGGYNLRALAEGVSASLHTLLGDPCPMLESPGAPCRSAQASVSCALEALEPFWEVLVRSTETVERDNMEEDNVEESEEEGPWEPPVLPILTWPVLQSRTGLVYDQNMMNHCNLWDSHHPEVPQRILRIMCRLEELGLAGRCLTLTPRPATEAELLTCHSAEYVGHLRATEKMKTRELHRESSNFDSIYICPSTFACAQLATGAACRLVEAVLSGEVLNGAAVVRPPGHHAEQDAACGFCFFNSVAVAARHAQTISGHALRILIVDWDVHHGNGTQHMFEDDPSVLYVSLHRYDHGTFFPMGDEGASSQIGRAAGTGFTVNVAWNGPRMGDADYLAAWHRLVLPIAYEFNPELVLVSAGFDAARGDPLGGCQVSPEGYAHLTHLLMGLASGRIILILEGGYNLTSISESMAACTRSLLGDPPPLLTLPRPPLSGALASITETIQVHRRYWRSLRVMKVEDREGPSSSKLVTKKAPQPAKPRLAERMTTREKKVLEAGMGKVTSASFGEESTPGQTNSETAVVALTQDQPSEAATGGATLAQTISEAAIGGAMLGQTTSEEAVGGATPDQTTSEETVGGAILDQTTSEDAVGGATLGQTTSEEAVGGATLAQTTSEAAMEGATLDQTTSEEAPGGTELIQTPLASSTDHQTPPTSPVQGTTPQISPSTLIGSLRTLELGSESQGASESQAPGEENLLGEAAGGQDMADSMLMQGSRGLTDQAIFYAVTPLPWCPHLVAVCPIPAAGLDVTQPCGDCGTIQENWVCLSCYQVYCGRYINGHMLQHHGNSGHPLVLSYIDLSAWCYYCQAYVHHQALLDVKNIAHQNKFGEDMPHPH
Response key: y means HDAC6 selectivity (fold) >= 2000 fold; n means HDAC6 selectivity (fold) < 2000 fold.

Solved cases below.
COMPOUND: CS(=O)(=O)N(Cc1ccc(-c2nnc(C(F)F)o2)cn1)C1CCCCC1 [Compound 11351]
ASSIGNED LABEL: n
//
COMPOUND: CCC(=O)N1CC(N2CCC(S(=O)(=O)N(Cc3ccc(-c4nnc(C(F)F)o4)cc3)c3cccc(Cl)c3)CC2)C1 [Compound 11780]
ASSIGNED LABEL: n
//
COMPOUND: O=S(=O)(c1cccnc1)N(Cc1ccc(-c2nnc(C(F)(F)F)o2)cc1)c1ccccc1 [Compound 11151]
ASSIGNED LABEL: n
//
COMPOUND: CS(=O)(=O)N(Cc1ccc(-c2nnc(C(F)(F)F)o2)cc1)Cc1ccccn1 [Compound 11045]
ASSIGNED LABEL: n
//
COMPOUND: CS(=O)(=O)N(Cc1ccc(-c2nnc(C(F)F)o2)cc1F)c1ccc(C(F)(F)F)cc1 [Compound 11221]
ASSIGNED LABEL: n

Attention now turns to another entry.
Could you verify whether the entry CS(=O)(=O)N(Cc1ccc(-c2nnc(C(F)F)o2)cc1F)c1nncs1 [Compound 11776] shows HDAC6 selectivity (fold) of no less than 2000 fold?
n

----------
target: human recombinant HDAC6 (Homo sapiens); construct: purchased Calbiochem 382180; assay: HDAC6 enzyme activity inhibition assay (HDAC Fluorimetric Drug Discovery Kit); type: biochemical; details: HDAC1 vs HDAC6
METRIC NAME: HDAC6 selectivity (fold)
All answers are understood in fold, so give the number only.

COMPOUND: CCS(=O)(=O)N(Cc1ccc(-c2nnc(C(F)F)o2)cc1F)c1cccc(CN2CCS(=O)(=O)CC2)c1 [Compound 11392]
TEST TARGET: human recombinant HDAC6 (Homo sapiens)
METRIC NAME: HDAC6 selectivity (fold)
READOUT VALUE: 1000

Looking up CC(=O)N1CCN(CCS(=O)(=O)N(Cc2ccc(-c3nnc(C(F)F)o3)cc2)c2ccccc2)CC1 [Compound 11633] , I found its HDAC6 selectivity (fold) recorded as 2173

Looking up CC(C)(C)OC(=O)N1CC2(CCN(CCS(=O)(=O)N(Cc3ccc(-c4nnc(C(F)F)o4)cc3)c3ccccc3)CC2)C1 [Compound 11814] , I found its HDAC6 selectivity (fold) recorded as 88

The compound identified as CN1Cc2ccc(N(Cc3ccc(-c4nnc(C(F)F)o4)cn3)S(C)(=O)=O)cc2C1 [Compound 11733] registered its HDAC6 selectivity (fold) at 203

HDAC6 selectivity (fold) for O=S1(=O)CCC(S(=O)(=O)N(Cc2ccc(-c3nnc(C(F)F)o3)cn2)c2ccc(F)c(Cl)c2)CC1 [Compound 11497] is 2727

----------
target: human recombinant HDAC1 (Homo sapiens, UniProt Q13547); experiment: HDAC1 enzyme activity inhibition assay (HDAC Fluorimetric Drug Discovery Kit); settings: 0.3 μg enzyme, 10 μM substrate, 30° C., 60 minutes
Sequence (Q13547 whole entry): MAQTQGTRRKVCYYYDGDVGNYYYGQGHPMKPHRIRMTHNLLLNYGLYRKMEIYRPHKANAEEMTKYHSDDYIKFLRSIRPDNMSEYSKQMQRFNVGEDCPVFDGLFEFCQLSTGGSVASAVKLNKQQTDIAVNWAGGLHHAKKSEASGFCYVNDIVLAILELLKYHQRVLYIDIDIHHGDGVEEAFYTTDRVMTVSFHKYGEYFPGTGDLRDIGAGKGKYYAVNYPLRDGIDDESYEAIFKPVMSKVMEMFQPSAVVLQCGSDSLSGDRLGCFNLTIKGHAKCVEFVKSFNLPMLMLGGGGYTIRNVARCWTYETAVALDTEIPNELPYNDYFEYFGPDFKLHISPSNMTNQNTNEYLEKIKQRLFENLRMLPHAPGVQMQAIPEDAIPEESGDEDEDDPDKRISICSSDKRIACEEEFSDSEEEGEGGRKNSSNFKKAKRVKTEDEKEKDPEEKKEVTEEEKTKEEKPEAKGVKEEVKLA
METRIC NAME: IC50 (µM)
Dear colleague, please return just the value in µM, with no unit written.

# example entries with known answers
MOL: COc1ccc(N(Cc2ccc(-c3nnc(C(F)(F)F)o3)cc2F)S(C)(=O)=O)cc1
MEASUREMENT UNITS: µM
IC50: 7

MOL: CCS(=O)(=O)N(Cc1ccc(-c2nnc(C(F)F)o2)cn1)c1ccc(F)c(C)c1
MEASUREMENT UNITS: µM
IC50: 27.7

MOL: O=S(=O)(CCN1CCCC1)N(Cc1ccc(-c2nnc(C(F)F)o2)cc1)c1ccccc1
MEASUREMENT UNITS: µM
IC50: 77.9

Value of IC50 reported for the compound O=S1(=O)CCC(S(=O)(=O)N(Cc2ccc(-c3nnc(C(F)F)o3)cn2)c2ccc(F)c(Cl)c2)CC1 is 21.8

----------
We begin with a simple list: items and their reported HDAC6 selectivity (fold).
Target: human recombinant HDAC6 (Homo sapiens, UniProt Q9UBN7)
Construct: purchased Calbiochem 382180
Experiment: HDAC6 enzyme activity inhibition assay (HDAC Fluorimetric Drug Discovery Kit)
Assay type: biochemical
Conditions: HDAC1 vs HDAC6
Procedure: In order to examine the HDAC6 selectivity of the compounds of formula I of the present invention by HDAC1 and HDAC6 enzymatic activity inhibition assays, an experiment was performed using a conventional substance as a control. HDAC enzyme activity was measured using a HDAC Fluorimetric Drug Discovery Kit (BML-AK511, 516, Enzo Life Science). […] Based on the resulting values, each IC50 value was calculated using GraphPad Prism4.0 program.
Give the quantity in fold, number only.

Before answering, review these 3 worked examples.
COMPOUND: O=S(=O)(C1CCOCC1)N(Cc1ccc(-c2nnc(C(F)F)o2)cn1)c1ccccc1 [Compound 11390]
TEST TARGET: human recombinant HDAC6 (Homo sapiens, UniProt Q9UBN7)
MEASUREMENT UNITS: fold
READOUT VALUE: 7692
--
COMPOUND: CS(=O)(=O)N(Cc1ccc(-c2nnc(C(F)(F)F)o2)cn1)c1ccc(F)c(Cl)c1 [Compound 11432]
TEST TARGET: human recombinant HDAC6 (Homo sapiens, UniProt Q9UBN7)
MEASUREMENT UNITS: fold
READOUT VALUE: 271
--
COMPOUND: CS(=O)(=O)N(Cc1ccc(-c2nnc(C(F)(F)F)o2)cc1F)c1cccnc1 [Compound 11089]
TEST TARGET: human recombinant HDAC6 (Homo sapiens, UniProt Q9UBN7)
MEASUREMENT UNITS: fold
READOUT VALUE: 957

Record summary for CCN(CCS(=O)(=O)N(Cc1ccc(-c2nnc(C(F)F)o2)cc1)c1ccccc1)Cc1ccccc1 [Compound 11765] : reported HDAC6 selectivity (fold) = 526

The compound CS(=O)(=O)N(Cc1ccc(-c2nnc(C(F)(F)F)o2)c(F)c1)c1cccnc1 [Compound 11133] showed HDAC6 selectivity (fold) equal to 290

Memo: O=C(OCC1CCN(CCS(=O)(=O)N(Cc2ccc(-c3nnc(C(F)F)o3)cc2)c2ccccc2)CC1)C(F)F [Compound 11676] , reported HDAC6 selectivity (fold): 1408

CCS(=O)(=O)N(Cc1ccc(-c2nnc(C(F)F)o2)cc1F)c1cccc2cnn(C)c12 [Compound 11522] has a reported HDAC6 selectivity (fold) of 4167

Reported HDAC6 selectivity (fold) of O=S(=O)(CCN1CC[C@H](CO)C1)N(Cc1ccc(-c2nnc(C(F)F)o2)cc1)c1ccccc1 [Compound 11804] : 3115

----------
target: human recombinant HDAC6 (Homo sapiens); construct: purchased Calbiochem 382180; assay: HDAC6 enzyme activity inhibition assay (HDAC Fluorimetric Drug Discovery Kit); format: biochemical; conditions: HDAC1 vs HDAC6
Mark 1 for reported HDAC6 selectivity (fold) of 600 fold or greater; mark 0 for anything smaller.

MOL: CS(=O)(=O)N(Cc1ccc(-c2nnc(C(F)(F)F)o2)cc1)c1cccnc1
ASSIGNED LABEL: 0

Item CS(=O)(=O)N(Cc1ccc(-c2nnc(C(F)F)o2)cn1)c1ccc2c(c1)CN(C1COC1)C2 with HDAC6 selectivity (fold) of 600 fold or above?
0

Say whether CCN1CC(N2CCC(S(=O)(=O)N(Cc3ccc(-c4nnc(C(F)F)o4)cc3)c3cccc(Cl)c3)CC2)C1 shows HDAC6 selectivity (fold) of 600 fold or more.
1

Can CCS(=O)(=O)N(Cc1ccc(-c2nnc(C(F)F)o2)cn1)c1cccc(Br)c1 be said to have HDAC6 selectivity (fold) at or above 600 fold?
1

Quick check, HDAC6 selectivity (fold) >= 600 fold? CCS(=O)(=O)N(Cc1ccc(-c2nnc(C(F)(F)F)o2)cc1F)c1cccc(CN2CCN(C(C)=O)CC2)c1
0

HDAC6 selectivity (fold) >= 600 fold for CS(=O)(=O)N(Cc1ccc(-c2nnc(C(F)(F)F)o2)cc1F)c1ccccc1C(F)(F)F ?
0

Confirm if HDAC6 selectivity (fold) reported for the compound CCS(=O)(=O)N(Cc1ccc(-c2nnc(C(F)F)o2)cn1)c1ccc(CN2CCN(C(C)=O)CC2)cc1 is 600 fold or above.
1

Determine whether measured HDAC6 selectivity (fold) meets or exceeds 600 fold for O=S(=O)(CCN1CCC(O)CC1)N(Cc1ccc(-c2nnc(C(F)F)o2)cc1)c1ccccc1
1

Check the entry CCN1CCC(S(=O)(=O)N(Cc2ccc(-c3nnc(C(F)F)o3)cc2F)c2ccccc2)CC1 : does HDAC6 selectivity (fold) equal or exceed 600 fold?
1

Test whether the compound O=S(=O)(CCN1CCC(N2CCOCC2)CC1)N(Cc1ccc(-c2nnc(C(F)F)o2)cc1)c1ccccc1 records HDAC6 selectivity (fold) of 600 fold or higher.
1
